# TEST_METHOD_NOTES: Acute toxicity in ip dosed ddY mouse measured after 72 hrs
# Assay type: organism-based
# TEST_CONDITIONS: in vivo
Below, each entry is listed with its recorded LD50 at 72 h.
QUANTITY_MEASURED: LD50 at 72 h (mg/kg)

In [3]: df
Out[3]:
                                     smi  reported_measurement
0  CCCCC1C(=O)N(c2ccccc2)N(c2ccccc2)C1=O                   420
1           CCCCOc1c(N2CCOCC2)cnn(C)c1=O                   440
2          CCCCCOc1c(N2CCOCC2)cnn(C)c1=O                   420
3            CCOc1c(N2CCOCC2)cnn(CC)c1=O                   380
